AC50 tested on Sodium-dependent dopamine transporter (Homo sapiens, UniProt Q01959): recorded values; also: assay procedure not described here
Sequence (Q01959 whole entry): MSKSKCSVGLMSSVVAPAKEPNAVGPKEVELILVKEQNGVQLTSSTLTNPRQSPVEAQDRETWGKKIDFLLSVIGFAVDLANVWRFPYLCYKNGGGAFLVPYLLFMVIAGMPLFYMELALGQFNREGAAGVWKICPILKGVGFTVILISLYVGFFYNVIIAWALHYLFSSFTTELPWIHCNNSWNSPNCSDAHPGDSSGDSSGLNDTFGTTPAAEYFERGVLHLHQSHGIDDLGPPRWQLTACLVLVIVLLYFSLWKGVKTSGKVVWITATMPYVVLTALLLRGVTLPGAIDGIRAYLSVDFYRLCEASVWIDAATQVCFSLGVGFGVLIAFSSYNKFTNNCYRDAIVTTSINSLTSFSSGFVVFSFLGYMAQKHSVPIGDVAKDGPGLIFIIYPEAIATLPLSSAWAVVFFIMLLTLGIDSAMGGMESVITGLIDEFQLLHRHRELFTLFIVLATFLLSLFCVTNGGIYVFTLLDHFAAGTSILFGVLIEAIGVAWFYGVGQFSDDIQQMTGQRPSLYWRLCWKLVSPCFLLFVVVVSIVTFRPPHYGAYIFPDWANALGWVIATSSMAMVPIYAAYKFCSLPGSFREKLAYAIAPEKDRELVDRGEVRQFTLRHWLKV

Enquiry: Could you tell me which AC50 is on file for CN(CCOc1ccc(NS(C)(=O)=O)cc1)CCc1ccc(NS(C)(=O)=O)cc1 [DOFETILIDE] ?
Return: > 10 µM

Enquiry: Could you tell me which AC50 is on file for NS(=O)(=O)c1cc(-c2nnn[nH]2)c(NCc2cccs2)cc1Cl [AZOSEMIDE] ?
Return: > 30 µM

Enquiry: Could you tell me which AC50 is on file for CN(C)C(=O)OC1N=C(c2ccccc2)c2cc(Cl)ccc2N(C)C1=O (stereo not drawn) ?
Return: > 10 µM

Enquiry: Could you tell me which AC50 is on file for CCC[C@@H]1C[C@@H](C(=O)N[C@@H]([C@H]2O[C@H](SC)[C@H](O)[C@@H](O)[C@H]2O)[C@H](C)Cl)N(C)C1 ?
Return: > 10 µM

Enquiry: Could you tell me which AC50 is on file for C[C@]12CCC(=O)C=C1CC[C@@H]1[C@@H]2CC[C@@]2(C)[C@H]1CC[C@]2(C)O ?
Return: > 30 µM

Enquiry: Could you tell me which AC50 is on file for COC(=O)[C@@H]1CC2=CC(=O)CC[C@]2(C)[C@@]23O[C@@H]2C[C@@]2(C)[C@@H](CC[C@@]24CCC(=O)O4)[C@H]13 ?
Return: > 30 µM

Enquiry: Could you tell me which AC50 is on file for NC[C@H]1O[C@H](O[C@H]2[C@H](O)[C@@H](O[C@H]3O[C@H](CO)[C@@H](O)[C@H](N)[C@H]3O)[C@H](N)C[C@@H]2N)[C@H](O)[C@@H](O)[C@@H]1O ?
Return: > 10 µM

Enquiry: Could you tell me which AC50 is on file for OCc1cc([C@@H](O)CNCCCCCCOCCOCc2c(Cl)cccc2Cl)ccc1O ?
Return: 6.7 µM

Enquiry: Could you tell me which AC50 is on file for Nc1ncnc2c1ncn2[C@@H]1O[C@H](COP(=O)(O)O)[C@@H](O)[C@H]1O [ADENOSINE PHOSPHATE] ?
Return: > 30 µM

Enquiry: Could you tell me which AC50 is on file for CCCC(=O)N1CCCN(c2nc(N)c3cc(OC)c(OC)cc3n2)CC1 ?
Return: > 30 µM

Enquiry: Could you tell me which AC50 is on file for COc1ccc2c(c1)C(=O)N(CCc1ccc(S(=O)(=O)NC(=O)NC3CCCCC3)cc1)C(=O)C2(C)C ?
Return: > 30 µM

Enquiry: Could you tell me which AC50 is on file for CN1CCC2=C(C1)C(c1ccccc1)c1ccccc12 (stereo not drawn) ?
Return: > 30 µM

Enquiry: Could you tell me which AC50 is on file for CN(C)CCCN1c2ccccc2CCc2ccc(Cl)cc21 ?
Return: 14.6 µM

Enquiry: Could you tell me which AC50 is on file for CCCCCCCCCCCC[N+](C)(C)CCOc1ccccc1 ?
Return: 2.5 µM

Enquiry: Could you tell me which AC50 is on file for Oc1ncnc2[nH]ncc12 ?
Return: > 10 µM

Enquiry: Could you tell me which AC50 is on file for CN(C)[C@@H]1C(O)=C(C(N)=O)C(=O)[C@@]2(O)C(O)=C3C(=O)c4c(O)ccc(Cl)c4[C@@H](O)[C@H]3C[C@@H]12 ?
Return: > 10 µM

Enquiry: Could you tell me which AC50 is on file for NC(=O)c1cnccn1 [PYRAZINAMIDE] ?
Return: > 30 µM

Enquiry: Could you tell me which AC50 is on file for COc1ccc(C(=O)NCc2ccc(OCCN(C)C)cc2)cc1OC [ITOPRIDE] ?
Return: > 30 µM

Enquiry: Could you tell me which AC50 is on file for CCCS(=O)(=O)Nc1ccc(F)c(C(=O)c2c[nH]c3ncc(-c4ccc(Cl)cc4)cc23)c1F ?
Return: > 30 µM

Enquiry: Could you tell me which AC50 is on file for O=C(O)c1cccc(-c2noc(-c3ccccc3F)n2)c1 ?
Return: > 30 µM

Enquiry: Could you tell me which AC50 is on file for COc1ccc2cccc(CCNC(C)=O)c2c1 ?
Return: > 10 µM

Enquiry: Could you tell me which AC50 is on file for CN1CCCN=C1COC(=O)C(O)(c1ccccc1)C1CCCCC1 (stereo not drawn) ?
Return: > 30 µM

Enquiry: Could you tell me which AC50 is on file for Cc1c(C(=O)Nc2ccc(N3C[C@@H](C)O[C@@H](C)C3)nc2)cccc1-c1ccc(OC(F)(F)F)cc1 ?
Return: > 10 µM

Enquiry: Could you tell me which AC50 is on file for C[C@H]1C[C@@H]2[C@H]([C@@H](O)C[C@@]3(C)[C@H]2CC[C@]3(O)C(=O)COC(=O)CCC(=O)O)[C@@]2(C)C=CC(=O)C=C12 [METHYLPREDNISOLONE HEMISUCCINATE] ?
Return: > 30 µM

Enquiry: Could you tell me which AC50 is on file for CN1C(=O)CC(=O)N(c2ccccc2)c2cc(Cl)ccc21 ?
Return: > 10 µM

Enquiry: Could you tell me which AC50 is on file for O=C1CCC(N2C(=O)c3ccccc3C2=O)C(=O)N1 (stereo not drawn) [THALIDOMIDE] ?
Return: > 10 µM

Enquiry: Could you tell me which AC50 is on file for CN[C@@H](C)[C@H](O)c1ccccc1 ?
Return: > 10 µM

Enquiry: Could you tell me which AC50 is on file for C[N+](C)(C)CC(=O)O ?
Return: > 30 µM

Enquiry: Could you tell me which AC50 is on file for COc1ccc2c(c1)c(CC(=O)OCC(=O)O)c(C)n2C(=O)c1ccc(Cl)cc1 ?
Return: > 30 µM

Enquiry: Could you tell me which AC50 is on file for CC(=O)O[C@@]12CO[C@@H]1C[C@H](O)[C@@]1(C)C(=O)[C@H](O)C3=C(C)[C@@H](OC(=O)[C@H](O)[C@@H](NC(=O)OC(C)(C)C)c4ccccc4)C[C@@](O)([C@@H](OC(=O)c4ccccc4)[C@H]21)C3(C)C [DOCETAXEL ANHYDROUS] ?
Return: > 30 µM

Enquiry: Could you tell me which AC50 is on file for CCCCN1CCCCC1C(=O)Nc1c(C)cccc1C (stereo not drawn) ?
Return: > 30 µM

Enquiry: Could you tell me which AC50 is on file for CC(=O)c1ccc2c(c1)N(CCCN1CCN(CCO)CC1)c1ccccc1S2 ?
Return: 25 µM

Enquiry: Could you tell me which AC50 is on file for COC(=O)N[C@H](C(=O)N1CCC[C@H]1c1nc(-c2ccc(-c3ccc(-c4c[nH]c([C@@H]5CCCN5C(=O)[C@@H](NC(=O)OC)C(C)C)n4)cc3)cc2)c[nH]1)C(C)C ?
Return: > 30 µM
